Target: T1, secretory phospholipase A2 (sPLA2) (Homo sapiens, UniProt P14555 P14555:21-144)
T1 sequence: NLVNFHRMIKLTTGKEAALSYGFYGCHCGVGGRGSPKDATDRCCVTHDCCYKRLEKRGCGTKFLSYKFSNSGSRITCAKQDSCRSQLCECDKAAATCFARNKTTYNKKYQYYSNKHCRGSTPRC
Experiment: filter; biphasic, Kd2 170 nM, mole fraction 0.30; TBSC, 37 C
Conditions: tags: supplied by Eli Lilly
Value Type: pKd
Numbers only, as −log10 of the molar value.

q: Reported pKd for 83t (ssRNA) RNA: GGGAGCUCAGAAUAAACGCUCAACGCCUCAUGCCAACGUGGGAGCGUGGGUGGUUCGACAUGAGGCCCGGAUCCGGC : what is it?
a: 7.98
